Listed compounds paired with reported pIC50
# Test system: HCT-116
# assay_info: Antiproliferative activity against human HCT116 cells after 72 hrs by MTT assay
# Assay type: functional, cell-based
# test_settings: HCT-116, 72 h
pIC50: −log10 of the molar value.
measured_parameter: pIC50

INSERT INTO assay_data (given_smiles, observed_measurement) VALUES
  ('CCN(CC)CCn1c2ccccc2c(=O)c2cc3ncn(C4CCCC4)c3nc21', 5.09),
  ('CCN(CC)CCn1c2ccccc2c(=O)c2cc3ncn(C(C)C)c3nc21', 4.61),
  ('CC(C)n1cnc2cc3c(=O)c4ccccc4n(CCO)c3nc21', 4.39),
  ('CC(C)n1cnc2cc3c(=O)c4ccccc4n(CCN(C)C)c3nc21', 4.91),
  ('O=C1c2c(O)ccc(O)c2C(=O)c2c(NCCNCCO)ccc(NCCNCCO)c21', 7.60),
  ('O=c1c2ccccc2n(CCO)c2nc3c(cc12)ncn3-c1ccccc1', 4.48),
  ('CN(C)CCn1c2ccccc2c(=O)c2cc3ncn(C4CCCC4)c3nc21', 4.52),
  ('CC(C)n1cnc2cc3c(=O)c4ccccc4[nH]c3nc21', 4.43),
  ('O=c1c2ccccc2[nH]c2nc3c(cc12)ncn3C1CCCC1', 4.37),
  ('CN(C)CCn1c2ccccc2c(=O)c2cc3ncn(-c4ccccc4)c3nc21', 4.55);

src = ChEMBL document CHEMBL3588860
